target: Phosphatidylinositol 4,5-bisphosphate 3-kinase catalytic subunit alpha isoform (Homo sapiens); assay: Inhibition of PI3Kalpha (unknown origin) at 1 uM by kinase-glo luminescent assay relative to control
Sequence (P42336 whole entry, canonical isoform): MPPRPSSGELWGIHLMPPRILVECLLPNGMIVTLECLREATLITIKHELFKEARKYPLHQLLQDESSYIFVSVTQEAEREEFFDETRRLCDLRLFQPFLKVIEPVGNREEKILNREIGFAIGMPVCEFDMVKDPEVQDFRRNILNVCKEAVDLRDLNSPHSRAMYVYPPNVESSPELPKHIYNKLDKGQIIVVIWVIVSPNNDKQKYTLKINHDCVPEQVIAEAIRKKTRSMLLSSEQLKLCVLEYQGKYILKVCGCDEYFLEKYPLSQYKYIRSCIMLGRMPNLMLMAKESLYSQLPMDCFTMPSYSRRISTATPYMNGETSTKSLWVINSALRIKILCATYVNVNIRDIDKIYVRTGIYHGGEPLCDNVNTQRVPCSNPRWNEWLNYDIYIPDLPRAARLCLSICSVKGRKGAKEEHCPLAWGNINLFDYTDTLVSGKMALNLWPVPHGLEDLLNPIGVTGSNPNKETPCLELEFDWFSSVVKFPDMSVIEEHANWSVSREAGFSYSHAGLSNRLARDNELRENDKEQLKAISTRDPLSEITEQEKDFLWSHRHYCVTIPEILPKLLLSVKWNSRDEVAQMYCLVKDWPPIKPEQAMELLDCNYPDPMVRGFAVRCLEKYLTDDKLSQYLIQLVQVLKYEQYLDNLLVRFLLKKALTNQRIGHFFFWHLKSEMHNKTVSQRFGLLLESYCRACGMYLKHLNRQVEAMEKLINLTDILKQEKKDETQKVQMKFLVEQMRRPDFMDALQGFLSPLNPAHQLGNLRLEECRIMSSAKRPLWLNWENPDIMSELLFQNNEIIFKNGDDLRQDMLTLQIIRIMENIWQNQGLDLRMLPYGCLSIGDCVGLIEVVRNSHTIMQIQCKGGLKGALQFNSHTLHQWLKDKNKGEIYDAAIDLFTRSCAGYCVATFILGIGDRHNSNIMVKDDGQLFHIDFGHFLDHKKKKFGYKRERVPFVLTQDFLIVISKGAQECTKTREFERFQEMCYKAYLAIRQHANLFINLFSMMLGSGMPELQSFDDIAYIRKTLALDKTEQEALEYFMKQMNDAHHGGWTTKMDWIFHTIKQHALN
Please note: Condition met applies when inhibition is 40% or greater, and Condition not met applies otherwise.

Use the examples below as a reference point.
CS(=O)(=O)N1CCN(Cc2cc3nc(-c4cccc5[nH]ncc45)nc(N4CCOCC4)c3s2)CC1; Condition met
CS(=O)(=O)N1CCN(Cc2ccc(-c3nc(-c4ccc(NC(=O)NC5CN6CCC5CC6)cc4)nc(N4CCOCC4)n3)s2)CC1 (configuration not stated); Condition not met
CS(=O)(=O)N1CCN(Cc2ccc(-c3nc(-c4ccc(NC(=O)Nc5nc[nH]n5)cc4)nc(N4CCOCC4)n3)s2)CC1; Condition met
CS(=O)(=O)N1CCN(Cc2ccc(-c3nc(-c4ccc(NC(=O)Nc5cnccn5)cc4)nc(N4CCOCC4)n3)s2)CC1; Condition not met
CS(=O)(=O)N1CCN(Cc2ccc(-c3nc(-c4ccc(NC(=O)Nc5ccncn5)cc4)nc(N4CCOCC4)n3)s2)CC1; Condition met
CS(=O)(=O)N1CCN(Cc2ccc(-c3nc(-c4ccc(NC(=O)Nc5ncccn5)cc4)nc(N4CCOCC4)n3)s2)CC1; Condition met

(Q) Is inhibition for `Cn1nccc1NC(=O)Nc1ccc(-c2nc(-c3ccc(CN4CCN(S(C)(=O)=O)CC4)s3)nc(N3CCOCC3)n2)cc1` at or above 40%?
(A) Condition met

* * *

Parameter pIC50: see the listing below.
system: A549; assay: Antiproliferative activity against human A549 cells assessed as inhibition of cell growth incubated for 72 hrs by MTT assay; type: functional, cell-based; conditions: A549, 72 h
pIC50 field: float, defined as -log10 of concentration (mol/L).

Below are worked cases with known answers.
CS(=O)(=O)N1CCN(Cc2ccc(-c3nc(-c4ccc(NC(=O)Nc5ccc6[nH]ncc6c5)cc4)nc(N4CCOCC4)n3)s2)CC1; 4.85
CS(=O)(=O)N1CCN(Cc2ccc(-c3nc(-c4ccc(NC(=O)Nc5cncnc5)cc4)nc(N4CCOCC4)n3)s2)CC1; 4.97
Cn1nccc1NC(=O)Nc1ccc(-c2nc(-c3ccc(CN4CCN(S(C)(=O)=O)CC4)s3)nc(N3CCOCC3)n2)cc1; 4.78

Now, please, on to the next compound.
(Q) Which pIC50 is reported with A549 for this entry: `CS(=O)(=O)N1CCN(Cc2ccc(-c3nc(-c4ccc(NC(=O)Nc5ccncn5)cc4)nc(N4CCOCC4)n3)s2)CC1` ?
(A) 4.35

* * *

assay: Selectivity ratio of IC50 for antiproliferative activity against human A549 cells to IC50 for antiproliferative activity against human NCI-H1975 cells overexpressing EGFR L858R/T790M mutant; assay type: functional
Parameter Ratio IC50: see the listing below.

Below are worked cases with known answers.
CS(=O)(=O)N1CCN(Cc2ccc(-c3nc(-c4ccc(NC(=O)Nc5nc[nH]n5)cc4)nc(N4CCOCC4)n3)s2)CC1; 0.59
CS(=O)(=O)N1CCN(Cc2ccc(-c3nc(-c4ccc(NC(=O)Nc5ccncn5)cc4)nc(N4CCOCC4)n3)s2)CC1; 8.12
Cn1nccc1NC(=O)Nc1ccc(-c2nc(-c3ccc(CN4CCN(S(C)(=O)=O)CC4)s3)nc(N3CCOCC3)n2)cc1; 1.67

(Q) Recorded Ratio IC50 for `CS(=O)(=O)N1CCN(Cc2ccc(-c3nc(-c4ccc(NC(=O)Nc5ccc6[nH]ncc6c5)cc4)nc(N4CCOCC4)n3)s2)CC1` , please?
(A) 0.46

(Q) Recorded Ratio IC50 for `CS(=O)(=O)N1CCN(Cc2ccc(-c3nc(-c4ccc(NC(=O)NN5CCOCC5)cc4)nc(N4CCOCC4)n3)s2)CC1` , please?
(A) 186.72

(Q) Recorded Ratio IC50 for `CS(=O)(=O)N1CCN(Cc2ccc(-c3nc(-c4ccc(NC(=O)Nc5ncccn5)cc4)nc(N4CCOCC4)n3)s2)CC1` , please?
(A) 1.03

The reported measurements were obtained from ChEMBL document CHEMBL5236659.
